Sourced from PubChem BioAssay

assay: MM1S cell viability effects, profiling panel, calcein-AM fluorescence, 48 h, basal (AID 1165); settings: higher = more signal;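 note: viability of MM1S multiple myeloma cells under basal unstimulated conditions; test concentration not given here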
READOUT: z-score

Query: # query: z-score of entry `COc1ccc([Si](C)(C)[C@H]2[C@H](CCn3cc(CCO)nn3)O[C@@]3(C(=O)N(Cc4ccc(N5C(=O)c6cccc7cccc5c67)cc4)c4ccccc43)[C@@H]2C)cc1`
Result: -2.56

Query: Check `O=C(O)[C@H]1C[C@H]2C(=O)N3CCC[C@H]3C(=O)N2[C@H]1c1cccc(OCCO)c1` too.
Result: 0.792

Query: Check `NCCCCCCNC(=O)[C@@H]1C[C@@H]2C(=O)N3CCC[C@H]3C(=O)N2[C@@H]1c1ccc(O)cc1` too.
Result: -0.0269

Query: Check `C=CCN1C(=O)[C@@]2(O[C@@H](CCn3cc([C@H](O)c4ccccc4)nn3)[C@H]([Si](C)(C)c3ccc(OC)cc3)[C@H]2C)c2ccccc21` too.
Result: -2.7

Query: Check `COC(=O)[C@@]1(Cc2ccccc2)[C@H]2c3cc(C(=O)N4CCCC4)n(Cc4ccsc4Br)c3C[C@H]2CN1C(=O)c1ccccc1` too.
Result: -1.54

Query: Check `[N-]=[N+]=Nc1ccccc1[C@@H]1OC(c2ccc(OCCCO)cc2)=N[C@]1(CCS(=O)(=O)c1ccccc1)C(=O)NCCN1CCOCC1` too.
Result: 0.351

Query: Check `[N-]=[N+]=NCc1ccccc1C[C@@]1(C(=O)NCCN2CCOCC2)N=C(c2ccc(OCCCO)cc2)O[C@@H]1c1ccccc1N=[N+]=[N-]` too.
Result: -1.31

Query: Check `CO[C@H]1O[C@H](CO)[C@@H](OC(=O)c2ccc(Br)cc2)[C@@H]2OC(=O)[C@@H](Cc3ccc4ccccc4c3)C/C=C/C[C@H](Cc3ccc4ccccc4c3)C(=O)O[C@@H]12` too.
Result: -0.0385

Query: Check CCCCN1CC=CC23O[C@@H]4/C=C\CCC(C)OC(=O)C4[C@H]2C(=O)N(CCCCCCO)[C@@H]3C1=O (some centres undefined) too.
Result: 1.79

Query: Check `COc1ccc([Si](C)(C)[C@H]2[C@H](CC(=O)N3Cc4ccccc4C[C@H]3CO)O[C@@]3(C(=O)N(Cc4cccc(N5CCCCC5=O)c4)c4ccccc43)[C@@H]2C)cc1` too.
Result: -1.87

Query: Check `O=C1O[C@@H](c2ccccc2)[C@@H](c2ccccc2)N2[C@@H](c3ccccc3OCCO)[C@]3(C(=O)Nc4ccc(C#CC5=CCCCC5)cc43)[C@@H](C(=O)NC[C@H](O)c3ccccc3)[C@H]12` too.
Result: -3.25

Query: Check CC(C)C(O)C1C=CC2C(=O)N(C)C(=O)C2N1N(c1ccccc1)c1ccccc1 (centres undefined) too.
Result: 0.0007

Query: Check `COc1ccccc1CN1C(=O)c2ccccc2[C@](Cc2ccccc2I)(C(=O)NC(C)C)[C@@H]1c1ccc(CO)cc1` too.
Result: -1.38

Query: Check `CCOC(=O)C1=CC[C@@H](c2cc(Cl)ccc2Cl)N(S(=O)(=O)c2ccc(C)cc2)[C@H]1c1ccc(OC)cc1` too.
Result: -0.852

* * *

Kindly state composite z-score for each of the entries shown.
assay: binders of probe aHhip on microarray, primary screen, stem cell growth factor project, biochemical, small-molecule microarray, fluorescence 635/667 (AID 1087); conditions: higher = more signal;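 note: score merges spot fluorescence at 667nm with spot signal to noise ratio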
Number, no unit, nothing else.

Query: # query: composite z-score of entry `COc1ccc(NC(=O)O[C@H]2[C@H](OC(=O)Nc3ccc4c(c3)OCO4)[C@@H](OC(=O)Nc3ccc4c(c3)OCO4)[C@@H](OC)O[C@@H]2CO)cc1`
Result: -0.0296

Query: Check CC(C)c1ccc(NN2C(C(O)c3ccco3)C=CC3C(=O)N(c4ccccc4)C(=O)C32)cc1 (stereo unspecified) too.
Result: -0.0606

Query: Check `O=C1O[C@@H](c2ccccc2)[C@@H](c2ccccc2)N2[C@@H](c3ccccc3OCCO)[C@]3(C(=O)Nc4ccc(C#CC5=CCCCC5)cc43)[C@@H](C(=O)NC[C@H](O)c3ccccc3)[C@H]12` too.
Result: -0.0391

Query: Check `Cc1ccc(F)cc1S(=O)(=O)N[C@@H]1CCN(Cc2ccc(Oc3ccccc3)cc2)C1` too.
Result: -0.34

Query: Check CC1CC/C=C\[C@H]2OC34C=CCN(CCN5CCOCC5)C(=O)[C@H]3N(CCO)C(=O)[C@@H]4C2C(=O)O1 (stereo partly specified) too.
Result: -0.4

Query: Check `C=CCOC(=O)[C@@H]1[C@H]2C(=O)O[C@H](c3ccccc3)[C@H](c3ccccc3)N2[C@H](c2ccc(OCCOC(=O)[C@H]3C[C@H]4C(=O)N[C@@H](CCCCNC(C)=O)C(=O)N4[C@H]3c3cccc(OCCO)c3)cc2)[C@@]12C(=O)Nc1ccc(I)cc12` too.
Result: 0.0479
